All values here come from patent US8088791B2.

# System: Staphylococcus aureus ATCC29213
# method-notes: Minimum Inhibitory Concentration (MIC) testing, broth microdilution, Staphylococcus aureus
# Type: cell-based
# applied-conditions: Staphylococcus aureus ATCC29213; read-out: Staphylococcus aureus MICs Activity
Listing: MIC of selected compounds

// known answers, use as guide
* CCCc1ccc2nc(COc3ccc(F)c(C(N)=O)c3F)sc2c1 [Example 231] | < 8 µg/mL
* Cn1ccnc1COc1ccc(F)c(C(N)=O)c1F [Example 194] | > 64 µg/mL

Query (compound): NC(=O)c1c(F)ccc(OCc2cccc(F)c2)c1F [Example 101] ; field requested: MIC
16 to 64 µg/mL

Query (compound): NC(=O)c1c(F)ccc(OCc2nc3cc(Cl)ccc3s2)c1F [Example 218] ; field requested: MIC
< 8 µg/mL

Query (compound): NC(=O)c1cccc(OCc2nc(-c3ccc(Cl)cc3)no2)c1F [Example 267] ; field requested: MIC
< 8 µg/mL

Query (compound): NC(=O)c1cccc(OCn2cccn2)c1 [Example 168, 3-(Pyrazol-1-ylmethoxy)-benzamide] ; field requested: MIC
> 64 µg/mL

Query (compound): CCCCCC/C=C/COc1ccc(F)c(C(N)=O)c1F [Example 84] ; field requested: MIC
< 8 µg/mL

Query (compound): CCCCCCOc1ccc(F)c(C(N)=O)c1F [Example 81] ; field requested: MIC
< 8 µg/mL

Query (compound): Cc1cccc2ccc(COc3ccc(F)c(C(N)=O)c3F)nc12 [Example 146] ; field requested: MIC
16 to 64 µg/mL

Query (compound): C=CCCCCCCOc1cccc(C(N)=O)c1 [Example 12, 3-(7-Octenyloxy)benzenecarboxamide] ; field requested: MIC
< 8 µg/mL

Query (compound): NC(=O)c1c(F)ccc(OCc2nc3cc([N+](=O)[O-])ccc3s2)c1F [Example 117] ; field requested: MIC
< 8 µg/mL

Query (compound): NC(=O)c1c(F)ccc(OCc2nc3cc(Cl)ccc3o2)c1F [Example 210] ; field requested: MIC
< 8 µg/mL

Query (compound): C#CCCCCCCCCCOc1ccc(F)c(C(N)=O)c1 [Example 75] ; field requested: MIC
< 8 µg/mL

Query (compound): COC(=O)c1ccc2nc(COc3ccc(F)c(C(N)=O)c3F)sc2c1 [Example 321] ; field requested: MIC
< 8 µg/mL

Query (compound): COc1ccc(-c2nc(COc3ccc(F)c(C(N)=O)c3F)sc2-c2cccc(OC)c2)cc1 [Example 281] ; field requested: MIC
< 8 µg/mL

Query (compound): CCCCCC/C=C/COc1cccc(C(N)=O)c1 [Example 49, 3-[(E)-2-Nonenyloxy]benzenecarboxamide] ; field requested: MIC
< 8 µg/mL

Query (compound): CC/C=C\CCCCOc1ccc(F)c(C(N)=O)c1 [Example 73] ; field requested: MIC
< 8 µg/mL

Query (compound): COc1ccc(-c2nc(COc3ccc(F)c(C(N)=O)c3F)sc2Br)cc1 [Example 158] ; field requested: MIC
< 8 µg/mL
